- Test system: Haemophilus influenzae
- assay-overview: In vitro antibacterial activity against Haemophilus influenza C.L
- Type: functional
readout-label: MIC (µg/mL)

Would you please look over these solved cases?
[
  {
    "molecule": "CO/N=C(\\C(=O)N[C@H]1CN2CC(C#N)=C(C(=O)O)N2C1=O)c1csc(N)n1",
    "readout-label": "MIC",
    "observed": 0.5
  },
  {
    "molecule": "CCN1CCN(C(=O)N[C@@H](C(=O)N[C@H]2CN3CC(C#N)=C(C(=O)O)N3C2=O)c2ccccc2)C(=O)C1=O",
    "readout-label": "MIC",
    "observed": 0.5
  },
  {
    "molecule": "CCCO/N=C(/C(=O)N[C@H]1CN2CC(S(=O)(=O)CCC)=C(C(=O)O)N2C1=O)c1csc(N)n1",
    "readout-label": "MIC",
    "observed": 0.5
  },
  {
    "molecule": "CCCCO/N=C(/C(=O)N[C@H]1CN2CC(C#N)=C(C(=O)O)N2C1=O)c1csc(N)n1",
    "readout-label": "MIC",
    "observed": 0.125
  }
]

P. N#CC1=C(C(=O)O)N2C(=O)[C@@H](NC(=O)CSc3cc(Cl)ccc3Cl)CN2C1
Q. CCCO/N=C(/C(=O)N[C@H]1CN2CC(S(C)(=O)=O)=C(C(=O)O)N2C1=O)c1csc(N)n1
R. CC(C)(O/N=C(/C(=O)N[C@H]1CN2CC(C#N)=C(C(=O)O)N2C1=O)c1csc(N)n1)C(=O)O
S. CC(C)=CCO/N=C(/C(=O)N[C@H]1CN2CC(S(C)(=O)=O)=C(C(=O)O)N2C1=O)c1csc(N)n1
input: List the 4 entries from lowest MIC to highest MIC value. # format: label list in the order the request specifies
output: R, Q, S, P
(R: 0.06 µg/mL, Q: 0.125 µg/mL, S: 0.25 µg/mL, P: 8 µg/mL)

###

- assay-overview: Urinary recovery expressed as percentage dose in male CD-1 mice after po administration of 20 mg/kg
- Assay type: ADME, organism-based
- Design: dose 20 mg/kg, route oral
- run-conditions: CD-1, mouse, urine
readout-label: dose excreted

input: Would you kindly share the measured dose excreted for `CO/N=C(\C(=O)N[C@H]1CN2CC(C#N)=C(C(=O)O)N2C1=O)c1csc(N)n1` ?
output: < 2%

###

- assay-overview: Half-life period in male rats after iv administration of 20 mg/kg
- Assay type: ADME, organism-based
- Parameters: dose 20 mg/kg, route intravenous
- run-conditions: rat, in vivo
readout-label: half-life (min)

[
  {
    "compound": "CO/N=C(\\C(=O)N[C@H]1CN2CC(C#N)=C(C(=O)O)N2C1=O)c1csc(N)n1",
    "half-life [min]": 17.9
  },
  {
    "compound": "CCCS(=O)(=O)C1=C(C(=O)O)N2C(=O)[C@@H](NC(=O)/C(=N/OCCCl)c3csc(N)n3)CN2C1",
    "half-life [min]": 14.7
  }
]

a. CO/N=C(\C(=O)NC1CN2CC(S(C)(=O)=O)=C(C(=O)O)N2C1=O)c1csc(N)n1 (centres undefined)
b. C=CCCO/N=C(/C(=O)N[C@H]1CN2CC(S(C)(=O)=O)=C(C(=O)O)N2C1=O)c1csc(N)n1
input: Hey, between a and b which has a smaller measured half-life? Select an item and report its label.
output: b
(b: 11.3 min, a: 24.7 min)

###

- assay-overview: Urinary recovery expressed as percentage dose in male rats after iv administration of 20 mg/kg
- Format: ADME, organism-based
- Parameters: dose 20 mg/kg, route intravenous
- run-conditions: rat, urine
readout-label: dose excreted (%)

[
  {
    "molecule": "CCCS(=O)(=O)C1=C(C(=O)O)N2C(=O)[C@@H](NC(=O)/C(=N/OCCCl)c3csc(N)n3)CN2C1",
    "dose excreted (%)": 44.2
  }
]

A. C=CCCO/N=C(/C(=O)N[C@H]1CN2CC(S(C)(=O)=O)=C(C(=O)O)N2C1=O)c1csc(N)n1
B. CO/N=C(\C(=O)N[C@H]1CN2CC(C#N)=C(C(=O)O)N2C1=O)c1csc(N)n1
input: Determine, for A and B , which has the greater value of dose excreted. State the label of the item chosen.
output: B
(B: 87.8%, A: 53.1%)

###

- assay-overview: Plasma half-life in human after intravenous administration
- Format: ADME, organism-based
readout-label: half-life (h)

[
  {
    "molecule": "CC(C)(O/N=C(\\C(=O)N[C@@H]1C(=O)N2C(C(=O)[O-])=C(C[n+]3ccccc3)CS[C@H]12)c1csc(N)n1)C(=O)O [CEFTAZIDIME]",
    "half-life / h": 1.8
  }
]

A. CO/N=C(\C(=O)N[C@@H]1C(=O)N2C(C(=O)O)=CCS[C@H]12)c1csc(N)n1 [CEFTIZOXIME]
B. Cn1nnnc1SCC1=C(C(=O)O)N2C(=O)[C@@H](NC(=O)[C@H](O)c3ccccc3)[C@H]2SC1 [CEFAMANDOLE]
input: Of the two listed items, which has the higher half-life? First: A Second: B API: response body contains the label of the selected item.
output: A

###

- System: Haemophilus influenzae
- assay-overview: In vitro antibacterial activity against Haemophilus influenza C.L
- Type: functional
readout-label: MIC (µg/mL)

These solved cases illustrate the format of a correct answer.
[
  {
    "molecule": "N#CC1=C(C(=O)O)N2C(=O)[C@@H](NC(=O)/C(=N/OCCCl)c3csc(N)n3)CN2C1",
    "measure-unit": "µg/mL",
    "MIC": 0.5
  },
  {
    "molecule": "N#CC1=C(C(=O)O)N2C(=O)[C@@H](NC(=O)/C(=N/OCc3ccccc3)c3csc(N)n3)CN2C1",
    "measure-unit": "µg/mL",
    "MIC": 0.25
  },
  {
    "molecule": "CS(=O)(=O)C1=C(C(=O)O)N2C(=O)[C@@H](NC(=O)/C(=N/OCCCl)c3csc(N)n3)CN2C1",
    "measure-unit": "µg/mL",
    "MIC": 0.5
  }
]

a. C=CCO/N=C(/C(=O)N[C@H]1CN2CC(S(=O)(=O)CCC)=C(C(=O)O)N2C1=O)c1csc(N)n1
b. CCS(=O)(=O)C1=C(C(=O)O)N2C(=O)[C@@H](NC(=O)/C(=N/OCCCl)c3csc(N)n3)CN2C1
input: For the pair a and b , which member has the lower MIC number? State your choice using its label.
output: a

###

- assay-overview: Plasma half-life in monkey after intravenous administration
- Format: ADME, organism-based
- run-conditions: simiiformes
readout-label: half-life (min)

[
  {
    "molecule": "C=CCCO/N=C(/C(=O)N[C@H]1CN2CC(S(C)(=O)=O)=C(C(=O)O)N2C1=O)c1csc(N)n1",
    "measure-unit": "min",
    "observed": 36
  },
  {
    "molecule": "CO/N=C(\\C(=O)N[C@@H]1C(=O)N2C(C(=O)O)=CCS[C@H]12)c1csc(N)n1",
    "measure-unit": "min",
    "observed": 44
  },
  {
    "molecule": "CC(C)(O/N=C(\\C(=O)N[C@@H]1C(=O)N2C(C(=O)[O-])=C(C[n+]3ccccc3)CS[C@H]12)c1csc(N)n1)C(=O)O",
    "measure-unit": "min",
    "observed": 49
  }
]

###

- assay-overview: Plasma binding expressed as percentage in rats […]
- Type: ADME, organism-based
- run-conditions: rat, iv, read-out: Plasma binding (converted)
readout-label: fraction unbound
Please reply with the value in numeric form only.

input: Please report the recorded fraction unbound for CO/N=C(\C(=O)NC1CN2CC(S(C)(=O)=O)=C(C(=O)O)N2C1=O)c1csc(N)n1 (stereo unspecified) .
output: 0.78

###

- assay-overview: Plasma binding in male rats […] expressed as percentage of plasma binding
- Assay type: ADME, organism-based
- run-conditions: rat, iv, read-out: Plasma binding (converted)
readout-label: fraction unbound
Form rule: numeric answer, no unit written next to it.

input: fraction unbound lookup needed for `CO/N=C(\C(=O)N[C@H]1CN2CC(C#N)=C(C(=O)O)N2C1=O)c1csc(N)n1` , thanks.
output: 0.585

###

- System: Escherichia coli
- assay-overview: In vitro antibacterial activity against Escherichia coli EC14
- Assay type: functional
readout-label: MIC (µg/mL)

Please review the entries below; each comes with its answer.
[
  {
    "molecule": "CC(C)(O/N=C(/C(=O)N[C@H]1CN2CC(C#N)=C(C(=O)O)N2C1=O)c1csc(N)n1)C(=O)O",
    "measure-unit": "µg/mL",
    "MIC": 0.03
  },
  {
    "molecule": "N#CC1=C(C(=O)O)N2C(=O)[C@@H](NC(=O)/C(=N/OCc3ccccc3)c3csc(N)n3)CN2C1",
    "measure-unit": "µg/mL",
    "MIC": 8
  },
  {
    "molecule": "CCS(=O)(=O)C1=C(C(=O)O)N2C(=O)[C@@H](NC(=O)/C(=N/OCC3CC3)c3csc(N)n3)CN2C1",
    "measure-unit": "µg/mL",
    "MIC": 0.06
  },
  {
    "molecule": "CS(=O)(=O)C1=C(C(=O)O)N2C(=O)[C@@H](NC(=O)/C(=N/OCC#N)c3csc(N)n3)CN2C1",
    "measure-unit": "µg/mL",
    "MIC": 0.25
  },
  {
    "molecule": "CS(=O)(=O)C1=C(C(=O)O)N2C(=O)[C@@H](NC(=O)/C(=N/OCCCCCl)c3csc(N)n3)CN2C1",
    "measure-unit": "µg/mL",
    "MIC": 1
  }
]

1. CS(=O)(=O)C1=C(C(=O)O)N2C(=O)[C@@H](NC(=O)/C(=N/OCC(=O)O)c3csc(N)n3)CN2C1
2. C=CCO/N=C(/C(=O)N[C@H]1CN2CC(C#N)=C(C(=O)O)N2C1=O)c1csc(N)n1
3. N#CC1=C(C(=O)O)N2C(=O)[C@@H](NC(=O)/C(=N/OCCF)c3csc(N)n3)CN2C1
input: Order these by MIC, descending, and give the full ranking. Provide the ranking by listing each label in its place in the requested order.
output: 2, 1, 3
(2: 0.125 µg/mL, 1: 0.06 µg/mL, 3: 0.03 µg/mL)
